Sequence of the target: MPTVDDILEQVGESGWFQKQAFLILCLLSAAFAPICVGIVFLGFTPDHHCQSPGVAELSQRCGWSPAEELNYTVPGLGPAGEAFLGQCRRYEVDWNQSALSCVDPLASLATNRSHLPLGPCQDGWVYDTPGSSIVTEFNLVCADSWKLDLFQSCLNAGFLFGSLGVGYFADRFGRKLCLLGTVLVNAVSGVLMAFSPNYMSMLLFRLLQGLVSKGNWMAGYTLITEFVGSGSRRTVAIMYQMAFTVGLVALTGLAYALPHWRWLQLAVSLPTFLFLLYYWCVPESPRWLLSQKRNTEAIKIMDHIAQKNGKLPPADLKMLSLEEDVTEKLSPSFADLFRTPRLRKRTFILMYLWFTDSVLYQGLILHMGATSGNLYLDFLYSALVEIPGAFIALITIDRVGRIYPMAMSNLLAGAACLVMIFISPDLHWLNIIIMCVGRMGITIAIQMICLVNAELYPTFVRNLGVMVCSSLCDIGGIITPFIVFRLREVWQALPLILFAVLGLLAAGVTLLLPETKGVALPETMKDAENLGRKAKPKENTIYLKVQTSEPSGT
parameterMeasured: IC50

{"columns": ["molecule", "IC50"],
 "data": [
  ["CCn1cc(C(=O)O)c(=O)c2cc(F)c(N3CCNCC3)cc21", "> 160 µM"],
  ["CNC(=C[N+](=O)[O-])NCCSCc1csc(CN(C)C)n1", "> 115 µM"]
]}

Okay, next one:
[Q] Give the measured IC50 for Cc1nccn1CC1CCc2c(c3ccccc3n2C)C1=O (stereo not drawn)
[A] > 1.32 µM

---

tgt: human OCT3 (Homo sapiens, UniProt O75751)
Sequence (O75751 whole entry): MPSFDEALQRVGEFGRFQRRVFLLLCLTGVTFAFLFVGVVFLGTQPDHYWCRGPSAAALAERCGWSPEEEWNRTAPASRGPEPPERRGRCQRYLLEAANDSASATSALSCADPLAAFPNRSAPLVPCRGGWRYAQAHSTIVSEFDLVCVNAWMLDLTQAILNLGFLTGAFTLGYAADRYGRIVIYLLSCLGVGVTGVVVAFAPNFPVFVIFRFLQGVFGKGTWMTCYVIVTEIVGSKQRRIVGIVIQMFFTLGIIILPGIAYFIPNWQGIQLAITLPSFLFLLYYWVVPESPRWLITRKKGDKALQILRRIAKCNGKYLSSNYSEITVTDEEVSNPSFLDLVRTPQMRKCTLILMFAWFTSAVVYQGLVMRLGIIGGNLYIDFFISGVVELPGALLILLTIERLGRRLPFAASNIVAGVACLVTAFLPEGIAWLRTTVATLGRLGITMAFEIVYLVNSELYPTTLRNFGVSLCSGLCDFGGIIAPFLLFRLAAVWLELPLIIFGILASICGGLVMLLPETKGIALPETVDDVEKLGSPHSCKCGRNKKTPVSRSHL
assayText: Inhibition of [14C]-metformin uptake in HEK-OCT3 cells
IC50 values for the compounds below.

{"columns": ["compound", "parameterMeasured", "measuredValue"],
 "data": [
  ["CCn1cc(C(=O)O)c(=O)c2cc(F)c(N3CCNCC3)cc21 [norfloxacin]", "IC50", "> 160 µM"],
  ["COc1c(N2C[C@@H]3CCCN[C@@H]3C2)c(F)cc2c(=O)c(C(=O)O)cn(C3CC3)c12 [moxifloxacin]", "IC50", "> 151 µM"]
]}

[Q] Give the measured IC50 for Cc1nccn1CC1CCc2c(c3ccccc3n2C)C1=O (stereo not drawn) [ondansetron]
[A] > 1.32 µM

Ref: paper PMC4792735
